Target: T1, HTRA4, P83105
T1 sequence (P83105 378-476, limits assumed, looked up): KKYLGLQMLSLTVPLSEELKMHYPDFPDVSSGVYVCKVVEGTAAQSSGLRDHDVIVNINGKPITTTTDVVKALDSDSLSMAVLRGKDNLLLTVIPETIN
Assay: holdup assay
Parameters: key: below the threshold = too weak to quantify, mostly under pKd 3.1 to 4
Conditions: plain residues with an end cap or a label only (N-terminal biotin on a linker: ado-ado)
We use 4 as the dividing line for pKd: on or above the line is condition met, below is condition not met.

Hi team, for PDGQCTVTEV [RNF146, Q9NTX7] , is the recorded pKd at or above 4? condition met

Hi team, for VYPNAKVELV [PDLIM4_iso2, P50479;P50479-1] , is the recorded pKd at or above 4? condition met

Hi team, for QMNQTLPVQV [EPHB3, P54753] , is the recorded pKd at or above 4? condition met

Hi team, for QSARLWETSI [ADAM22, Q9P0K1] , is the recorded pKd at or above 4? condition not met

Hi team, for SGSLKLMTTV [DACT1, Q9NYF0] , is the recorded pKd at or above 4? condition met
